System: Mus musculus
Experiment Summary: Anticonvulsant activity in Swiss albino Mus musculus (mouse) assessed as protection against maximal electroshock-induced seizures at 40 mg/kg, ip after 1 hr
Type: functional, organism-based
Design: dose 40 mg/kg
Active and inactive are the calls of the source. No cut-off for these calls is given here.
Quantity: Activity

[[record]]
smi = "CC(C)CC(=O)NC1=CC(=O)C(=O)c2ccccc21"
result = "Active"

[[record]]
smi = "CC(C)C(=O)NC1=CC(=O)C(=O)c2ccccc21"
result = "Active"

[[record]]
smi = "CC(=O)Nc1ccc(C(=O)NC2=CC(=O)C(=O)c3ccccc32)cc1"
result = "Active"

[[record]]
smi = "CCCC(=O)NC1=CC(=O)C(=O)c2ccccc21"
result = "Active"

[[record]]
smi = "CC(=O)NC1=CC(=O)C(=O)c2ccccc21"
result = "Active"

